- Test system: RXF 393 renal
- procedureSummary: NCI-60 one-dose screen, 48 h
- settings: 10 µM unless noted
This is part of a sample that, as a whole, favours compounds with a hit. Of some 83,000 tested, about 20% had one in any assay. Activity calls are given as the source filed them. How the source made its calls: active means growth percent below 10; inactive means the rest.
Outcomes: active, inactive

compound	categoryLabel
CNC(=O)O/N=C(\SC)C(=O)N(C)C	inactive
Oc1cc(Cl)ccc1Oc1ccc(Cl)cc1Cl	active
O=C(O)c1ccccc1N(CCO)CCCl	inactive
N[C@@H](CCC(=O)CCl)C(=O)O	inactive
Cc1ccc(N2CCN(CCC#N)CC2)cc1	inactive
O=C(NC(Cl)=C(Cl)Cl)P(=O)(c1ccccc1)c1ccccc1	inactive
C[C@]12CCC3[C@@H](C[C@@H]4SC(Nc5ccccc5)=N[C@@]45CC(=O)CC[C@]35C)[C@@H]1CCC2=O (stereo not given in full)	active
O=C1c2ccccc2C(=O)N1N1CC1c1ccccc1 (stereo not given)	inactive
CC[C@H](C)[C@H](NC(=O)[C@H]1CCCCN1C)C(=O)N(C)[C@H](C[C@@H](OC(C)=O)c1nc(C(=O)NC23C4C5C2C2C3C4C52C(=O)OC)cs1)C(C)C (stereo not given in full)	inactive
COc1ccc(N)cc1OC	inactive
C[N+]1(C)CCCC1c1cccnc1 (stereo not given)	inactive
CCOC(=O)P(=O)(OCC)OCC	inactive
Cc1ccc(NC2=N[C@]34CC(=O)CC[C@]3(C)[C@H]3CC[C@]5(C)C(=O)CC[C@H]5[C@@H]3C[C@@H]4S2)c(C)c1	inactive
N#CC(C#N)=C(C#N)C#N	inactive
COc1ccc2c(c1)C1(C)CCN(C)CC(C1)C2O (stereo not given)	inactive
